targetDesc: human D2R/β-arrestin (Homo sapiens (Human))
conditionsUsed: read-out: cAMP Antagonist

{"compound": "O=C(NC(c1ccc(F)cc1)c1ccccn1)C1CCN(CCOc2ccccc2F)CC1 (single isomer, unassigned) [Compound 54a]", "IC50": "< 0.1 µM"}
{"compound": "O=C(NC(c1cccc(OC(F)(F)F)c1)c1ccccn1)C1CCN(CCOc2ccccc2)CC1 (single isomer, unassigned) [Compound 118b]", "IC50": "> 30 µM"}
{"compound": "CC1(C(=O)NC(c2ccc(F)cc2)c2ccccn2)CCN(CCOc2ccccc2C(F)(F)F)CC1 (single isomer, unassigned) [Compound 70b]", "IC50": "> 30 µM"}
{"compound": "O=C(NC(c1ccc(Cl)cc1)c1ccccn1)C1CCN(CCOc2ccc3cccnc3c2)CC1 (single isomer, unassigned) [Compound 16b]", "IC50": "> 30 µM"}
{"compound": "O=C(NC(c1ccccc1)c1ccc(F)cc1)C1CCN(CCOc2ccccc2)CC1 (single isomer, unassigned) [Compound 45a]", "IC50": "0.1 to 1 µM"}
{"compound": "O=C(NC(c1cccc(F)c1)c1ccccn1)C1CCN(CCOc2ccccc2)CC1 (stereo not drawn)", "IC50": "> 30 µM"}

###

targetDesc: human D2R/β-arrestin (Homo sapiens (Human), UniProt P14416)
Sequence (P14416 whole entry): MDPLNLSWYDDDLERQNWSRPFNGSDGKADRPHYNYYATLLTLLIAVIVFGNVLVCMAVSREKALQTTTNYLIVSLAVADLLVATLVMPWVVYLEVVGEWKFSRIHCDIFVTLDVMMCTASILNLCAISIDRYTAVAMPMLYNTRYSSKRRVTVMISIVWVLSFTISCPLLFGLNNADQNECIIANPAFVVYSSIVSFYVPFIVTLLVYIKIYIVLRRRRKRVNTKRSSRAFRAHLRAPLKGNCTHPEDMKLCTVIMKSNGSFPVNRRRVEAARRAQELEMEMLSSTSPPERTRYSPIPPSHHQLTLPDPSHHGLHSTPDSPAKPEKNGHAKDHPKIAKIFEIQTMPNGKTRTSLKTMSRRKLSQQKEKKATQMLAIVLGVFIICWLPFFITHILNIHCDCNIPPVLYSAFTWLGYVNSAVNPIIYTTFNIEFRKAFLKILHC
testSummary: cell-based
conditionsUsed: cAMP Antagonist, CHO-K1 cell line expressing human D2R/β-arrestin; quinpirole used as agonist

{"molecule": "O=C(NC(c1ccc(Cl)cc1)c1ccccn1)C1CCN(CCOc2ccc(F)cc2)CC1 (stereo not shown)", "IC50": "1 to 10 µM"}
{"molecule": "O=C(NC(c1ccc(F)cc1)c1ccccn1)C1CCN(CC2Cc3ccccc3C2)CC1 (stereo not shown)", "IC50": "10 to 30 µM"}
{"molecule": "Clc1ccc(C(NCC2CCN(CCOc3ccccc3)CC2)c2ccccn2)cc1 (single isomer, unassigned) [Compound 114b]", "IC50": "> 30 µM"}
{"molecule": "COc1cccc(C(NC(=O)C2CCN(CCOc3ccc(F)cc3F)CC2)c2ccccn2)c1 (single isomer, unassigned) [Compound 145a]", "IC50": "1 to 10 µM"}
{"molecule": "O=C(NC(c1ccc(F)cc1)c1ccccn1)C1CCN(CCOc2ccccc2C(F)(F)F)CC1 (stereo not shown)", "IC50": "< 0.1 µM"}
{"molecule": "O=C(NC(c1ccc(Cl)cc1)c1ccccn1)C1CCN(CCOc2ccccc2C(F)(F)F)CC1 (stereo not shown)", "IC50": "< 0.1 µM"}
{"molecule": "CC1(C(=O)NC(c2ccc(F)cc2)c2ccccn2)CCN(CCOc2ccccc2C(F)(F)F)CC1 (stereo not shown)", "IC50": "0.1 to 1 µM"}

###

targetDesc: human D2R/β-arrestin (Homo sapiens (Human), UniProt P14416)
testSummary: cell-based
conditionsUsed: cAMP Antagonist, CHO-K1 cell line expressing human D2R/β-arrestin; quinpirole used as agonist

{"molecule": "CN(CC1CCN(CCOc2ccccc2)CC1)C(c1ccc(F)cc1)c1ccccn1 (stereo not shown) [Compound 74]", "targetDesc": "human D2R/β-arrestin (Homo sapiens (Human), UniProt P14416)", "IC50": "0.1 to 1 µM"}
{"molecule": "O=C(NC(c1ccc(Cl)cc1)c1ccccn1)C1CCN(CCOc2ccncc2)CC1 (stereo not shown)", "targetDesc": "human D2R/β-arrestin (Homo sapiens (Human), UniProt P14416)", "IC50": "10 to 30 µM"}
{"molecule": "CN(C(=O)C1CCN(CCOc2ccccc2)CC1)C(c1ccc(Cl)cc1)c1ccccn1 (stereo not shown)", "targetDesc": "human D2R/β-arrestin (Homo sapiens (Human), UniProt P14416)", "IC50": "> 30 µM"}
{"molecule": "O=C(NC(c1ccc(F)cc1)c1ccccn1)C1CCN(CCOc2ccccc2)CC1 (stereo not shown)", "targetDesc": "human D2R/β-arrestin (Homo sapiens (Human), UniProt P14416)", "IC50": "10 to 30 µM"}
{"molecule": "O=C(NC(c1ccc(Cl)cc1)c1ccccn1)C1CCN(CCOc2cccc(C(F)(F)F)c2)CC1 (stereo not shown)", "targetDesc": "human D2R/β-arrestin (Homo sapiens (Human), UniProt P14416)", "IC50": "0.1 to 1 µM"}
{"molecule": "Oc1c(CN2CCN(c3ccccn3)CC2)cc(Cl)c2cccnc12 [MLS1547, reference compound]", "targetDesc": "human D2R/β-arrestin (Homo sapiens (Human), UniProt P14416)", "IC50": "> 30 µM"}
{"molecule": "CC(C1CCN(CCOc2ccccc2)CC1)N(C)C(c1ccc(Cl)cc1)c1ccccn1 (stereo not shown) [Compound 97]", "targetDesc": "human D2R/β-arrestin (Homo sapiens (Human), UniProt P14416)", "IC50": "< 0.1 µM"}
{"molecule": "O=C(NC(c1ccc(Cl)cc1)c1ccccn1)C1CCN(CCOc2cccc(F)c2)CC1 (stereo not shown)", "targetDesc": "human D2R/β-arrestin (Homo sapiens (Human), UniProt P14416)", "IC50": "> 30 µM"}
{"molecule": "COc1ccccc1C(NC(=O)C1CCN(CCOc2ccccc2)CC1)c1ccccn1 (stereo not shown)", "targetDesc": "human D2R/β-arrestin (Homo sapiens (Human), UniProt P14416)", "IC50": "> 30 µM"}
{"molecule": "COc1cccc(C(NC(=O)C2CCN(CCOc3ccc4ncsc4c3)CC2)c2ccccn2)c1 (stereo not shown)", "targetDesc": "human D2R/β-arrestin (Homo sapiens (Human), UniProt P14416)", "IC50": "1 to 10 µM"}
{"molecule": "Clc1ccc(C(OCC2CCN(CCOc3ccccc3)CC2)c2ccccn2)cc1 (stereo not shown)", "targetDesc": "human D2R/β-arrestin (Homo sapiens (Human), UniProt P14416)", "IC50": "> 30 µM"}
{"molecule": "O=C(NC(c1ccc(Cl)cc1)c1ccccn1)C1CCN(CCCc2ccccc2)CC1 (stereo not shown)", "targetDesc": "human D2R/β-arrestin (Homo sapiens (Human), UniProt P14416)", "IC50": "> 30 µM"}
{"molecule": "O=C(NC(c1ccc(C(F)(F)F)cc1)c1ccccn1)C1CCN(CCOc2ccccc2)CC1 (stereo not shown)", "targetDesc": "human D2R/β-arrestin (Homo sapiens (Human), UniProt P14416)", "IC50": "> 30 µM"}
{"molecule": "CC1(CNC(c2ccc(F)cc2)c2ccccn2)CCN(CCOc2ccccc2C(F)(F)F)CC1 (stereo not shown) [Compound 101]", "targetDesc": "human D2R/β-arrestin (Homo sapiens (Human), UniProt P14416)", "IC50": "< 0.1 µM"}
{"molecule": "COc1cccc(C(c2ccccn2)N(C)CC2CCN(CCOc3ccccc3)CC2)c1 (single isomer, unassigned) [Compound 76a]", "targetDesc": "human D2R/β-arrestin (Homo sapiens (Human), UniProt P14416)", "IC50": "0.1 to 1 µM"}
{"molecule": "CN(CC1CCN(CCOc2ccccc2)CC1)C(c1ccc(F)cc1)c1ccccn1 (single isomer, unassigned) [Compound 74b]", "targetDesc": "human D2R/β-arrestin (Homo sapiens (Human), UniProt P14416)", "IC50": "0.1 to 1 µM"}

###

targetDesc: human D2R/β-arrestin (Homo sapiens (Human))
testSummary: Gi/cAMP agonist assay (Lance Ultra cAMP, Forskolin)
Assay type: cell-based
conditionsUsed: CHO-K1 cell line expressing human D2R/β-arrestin

{"compound": "O=C(NC(c1ccc(Cl)cc1)c1ccccn1)C1CCN(CCOc2ccc(Cl)cc2)CC1 (stereo not shown)", "EC50": "0.1 to 1 µM"}
{"compound": "O=C(NC(c1ccc(F)cc1)c1ccccn1)C1CCN(CCOc2ccccc2C(F)(F)F)CC1 (stereo not shown) [Compound 52]", "EC50": "> 30 µM"}
{"compound": "FC(F)(F)CN(CC1CCN(CCOc2ccccc2)CC1)C(c1ccc(Cl)cc1)c1ccccn1 (stereo not shown) [Compound 125]", "EC50": "0.1 to 1 µM"}
{"compound": "COc1cccc(C(NC(=O)C2CCN(CCOc3ccc(F)cc3F)CC2)c2ccccn2)c1 (single isomer, unassigned) [Compound 145b]", "EC50": "> 30 µM"}

###

targetDesc: human D2R/β-arrestin (Homo sapiens (Human), UniProt P14416)
testSummary: β-Arrestin agonist assay (PathHunter)
Assay type: cell-based
conditionsUsed: CHO-K1 cell line expressing human D2R/β-arrestin
pEC50: −log10 of the molar value.
Below, each of the compounds is paired with its reported pEC50 value.

{"compound": "Fc1ccc(OCCN2CCC(CNC(c3ccc(Cl)cc3)c3ccccn3)CC2)cc1 (centres unmarked)", "targetDesc": "human D2R/β-arrestin (Homo sapiens (Human), UniProt P14416)", "pEC50": "< 4.52"}
{"compound": "CN(CC1CCN(CCOc2ccccc2)CC1)C(c1ccc(F)cc1)c1ccccn1 (centres unmarked) [Compound 74]", "targetDesc": "human D2R/β-arrestin (Homo sapiens (Human), UniProt P14416)", "pEC50": "< 4.52"}
{"compound": "O=C(NC(c1ccc(Cl)cc1)c1ccccn1)C1CCN(CCOc2cccc(F)c2)CC1 (centres unmarked) [Compound 4]", "targetDesc": "human D2R/β-arrestin (Homo sapiens (Human), UniProt P14416)", "pEC50": "< 4.52"}
{"compound": "COc1cccc(C(NC(=O)C2CCN(CCOc3ccccc3)CC2)c2ccccc2)c1 (centres unmarked) [Compound 46]", "targetDesc": "human D2R/β-arrestin (Homo sapiens (Human), UniProt P14416)", "pEC50": "< 4.52"}
{"compound": "CC1(CNC(c2ccc(F)cc2)c2ccccn2)CCN(CCOc2ccccc2C(F)(F)F)CC1 (centres unmarked) [Compound 101]", "targetDesc": "human D2R/β-arrestin (Homo sapiens (Human), UniProt P14416)", "pEC50": "< 4.52"}
{"compound": "CN(C(=O)C1CCN(CCOc2ccccc2)CC1)C(c1ccc(Cl)cc1)c1ccccn1 (centres unmarked)", "targetDesc": "human D2R/β-arrestin (Homo sapiens (Human), UniProt P14416)", "pEC50": "< 4.52"}
{"compound": "O=C(NC(c1ccc(Cl)cc1)c1ccccn1)C1CCN(CCOc2ccccc2F)CC1 (single isomer, unassigned) [Compound 3a]", "targetDesc": "human D2R/β-arrestin (Homo sapiens (Human), UniProt P14416)", "pEC50": "< 4.52"}
{"compound": "CN(CC1CCN(CCOc2ccccc2F)CC1)C(c1ccc(F)cc1)c1ccccn1 (centres unmarked)", "targetDesc": "human D2R/β-arrestin (Homo sapiens (Human), UniProt P14416)", "pEC50": "< 4.52"}
{"compound": "CC(C)N(CC1CCN(CCOc2ccccc2)CC1)C(c1ccc(Cl)cc1)c1ccccn1 (single isomer, unassigned) [Compound 103a]", "targetDesc": "human D2R/β-arrestin (Homo sapiens (Human), UniProt P14416)", "pEC50": "< 4.52"}
{"compound": "Fc1ccc(C(NCC2CCN(CCOc3ccccc3F)CC2)c2ccccn2)cc1 (centres unmarked)", "targetDesc": "human D2R/β-arrestin (Homo sapiens (Human), UniProt P14416)", "pEC50": "< 4.52"}
{"compound": "CN1CCC(C(=O)NC(c2ccc(Cl)cc2)c2ccccn2)CC1 (centres unmarked)", "targetDesc": "human D2R/β-arrestin (Homo sapiens (Human), UniProt P14416)", "pEC50": "< 4.52"}
{"compound": "CC1(C(=O)NC(c2ccc(F)cc2)c2ccccn2)CCN(CCOc2ccccc2C(F)(F)F)CC1 (centres unmarked) [Compound 70]", "targetDesc": "human D2R/β-arrestin (Homo sapiens (Human), UniProt P14416)", "pEC50": "< 4.52"}
{"compound": "O=C(NC(c1cccc(F)c1)c1ccccn1)C1CCN(CCOc2ccccc2)CC1 (centres unmarked) [Compound 26]", "targetDesc": "human D2R/β-arrestin (Homo sapiens (Human), UniProt P14416)", "pEC50": "< 4.52"}
{"compound": "O=C(NC(c1ccc(Cl)cc1)c1ccccn1)C1CCN(CC2COc3ccccc3O2)CC1 (centres unmarked)", "targetDesc": "human D2R/β-arrestin (Homo sapiens (Human), UniProt P14416)", "pEC50": "< 4.52"}
{"compound": "O=C(NC(c1ccccn1)c1ccccc1Cl)C1CCN(CCOc2ccccc2)CC1 (centres unmarked)", "targetDesc": "human D2R/β-arrestin (Homo sapiens (Human), UniProt P14416)", "pEC50": "< 4.52"}
{"compound": "COc1ccccc1C(NC(=O)C1CCN(CCOc2ccccc2)CC1)c1ccccn1 (centres unmarked)", "targetDesc": "human D2R/β-arrestin (Homo sapiens (Human), UniProt P14416)", "pEC50": "< 4.52"}
{"compound": "O=C(NC(c1ccc(F)cc1)c1ccccc1F)C1CCN(CCOc2ccccc2)CC1 (centres unmarked)", "targetDesc": "human D2R/β-arrestin (Homo sapiens (Human), UniProt P14416)", "pEC50": "< 4.52"}
